System: SNB-19 CNS
Test: NCI-60 one-dose screen, 48 h (100 = growth as untreated, 0 = no growth, -100 = all killed)
Details: 10 µM
About 83,000 compounds went through this panel and 20% of them were active in at least one assay; those are over-represented in the sample as a whole.
reported_property: growth (%)
Write the value in % as a bare number.

// lookup growth for Cc1cc(Cl)ccc1NC(=O)/C(Cl)=C1/Sc2ccccc2NC1=O
94

// lookup growth for COc1ccc(C(C#N)=C2C=CC(=NO)C=C2)cc1
111

// lookup growth for COc1cc(N)ccc1Nc1c2ccccc2nc2ccccc12
99.7

// lookup growth for Cc1cc(C)c(N2C(=O)CC(Sc3ccccc3N)C2=O)c(C)c1 (stereo not given)
83.1

// lookup growth for Cc1c(-c2ccccc2)[nH]c2ccccc12
110

// lookup growth for COc1ccc(N)c2c1C(=O)c1ccccc1C2=O
101

// lookup growth for O=c1[nH]cc(/C=N\Nc2ccccc2)c(=O)[nH]1
103

// lookup growth for O=C1c2ccccc2CCC1(Br)Br
89.4

// lookup growth for CCOC(=O)[C@]1(Br)CC[C@@]1(Br)C(=O)OCC
106

// lookup growth for CCC(=O)Oc1ccc(/C=N/NC(N)=S)nc1
72.7

// lookup growth for CN(C)CCNc1cccc2sc3ccc(O)cc3c(=O)c12
57.4

// lookup growth for COc1cccc(C(c2cc3c(cc2O)OCO3)N2CCOCC2)c1OC (stereo not given)
98.5

// lookup growth for ClCCn1c(CCl)nc2ccc(Cl)cc21
47.9

// lookup growth for CC[C@@]1(OC(=O)CN(C)C)C(=O)OCc2c1cc1n(c2=O)Cc2cc3c(N)cccc3nc2-1
11.2

// lookup growth for O=[N+]([O-])c1cc(S(=O)(=O)Nc2ccccc2)ccc1Cl
95.5

// lookup growth for COc1ccc2c(c1)[nH]c1c(/C=C/c3ccccc3)nccc12
76.5

// lookup growth for CN(CC(=O)O)c1ccc(/C=C/c2ccnc3ccccc23)cc1
87.9

// lookup growth for N#C/C(=C/N1C(=O)/C(=C/c2ccc([N+](=O)[O-])cc2)SC1=S)c1nc2ccccc2s1
86.4

// lookup growth for C=C1N(C)c2ccc(Cl)cc2C1(C)C
55.1

// lookup growth for Cc1cc(N=C2C=CC(=[N+](C)C)C=C2)c(N)cc1N
87.3

* * *

Test system: OVCAR-5 ovarian
Test: NCI-60 one-dose screen, 48 h (100 = growth as untreated, 0 = no growth, -100 = all killed)
Settings: 10 µM
About 83,000 compounds went through this panel and 20% of them were active in at least one assay; those are over-represented in the sample as a whole.
Provide the reported growth of each item.
Write the value in % as a bare number.

// lookup growth for N#CC(=C1C=CC(=NO)C=C1)c1ccccc1
-10.1

// lookup growth for COc1cccc(C(c2cc3c(cc2O)OCO3)N2CCOCC2)c1OC (stereo not given)
104

// lookup growth for CC1CCC2(C(=O)O)CCC3(C)C(=CCC4C5(C)CC(O)C(O)C(C)(CO)C5C(O)CC43C)C2C1C (stereo not given)
188

// lookup growth for COc1ccc2c(c1)[nH]c1c(/C=C/c3ccccc3)nccc12
74.2

// lookup growth for O=Nc1ccc(Nc2ccccc2)cc1
103

* * *

System: LOX IMVI melanoma
Assay: NCI-60 one-dose screen, 48 h (100 = growth as untreated, 0 = no growth, -100 = all killed)
Details: 10 µM
About 83,000 compounds went through this panel and 20% of them were active in at least one assay; those are over-represented in the sample as a whole.
reported_property: growth (%)
Write the value in % as a bare number.

// lookup growth for CN(C)c1ccc(/C=C/c2ccnc3ccccc23)cc1N
71.4

// lookup growth for CC[C@@]1(OC(=O)CN(C)C)C(=O)OCc2c1cc1n(c2=O)Cc2cc3c(N)cccc3nc2-1
-39.3

// lookup growth for COc1ccc(N)c2c1C(=O)c1ccccc1C2=O
104

// lookup growth for O=S(=O)(c1cc(Cl)ccc1O)c1cc(Cl)ccc1O
93.5

// lookup growth for Cn1ncc2cc3c(Nc4ccc(Cl)cc4)cccc3nc21
87

// lookup growth for CCC(=O)Oc1ccc(/C=N/NC(N)=S)nc1
18.1

// lookup growth for O=c1[nH]cc(/C=N\Nc2ccccc2)c(=O)[nH]1
45.8

// lookup growth for Cc1cc(Cl)ccc1NC(=O)/C(Cl)=C1/Sc2ccccc2NC1=O
73.6

// lookup growth for CN(C)CCNc1cccc2sc3ccc(O)cc3c(=O)c12
18.3

// lookup growth for N#CC(=C1C=CC(=NO)C=C1)c1ccccc1
-6.53

// lookup growth for O=C1C=CC(=O)N1c1ccc(N2C(=O)C=CC2=O)cc1
85

// lookup growth for O=[N+]([O-])c1cc(S(=O)(=O)Nc2ccccc2)ccc1Cl
77.6
